The values you see were collected from patent EP1266655A1.

# PROCEDURE_TEXT: Solubility of Compound A in several test solutions
# Type: physicochemical
# STUDY_CONDITIONS: Water, 3 hours, final pH 5.81
MEASURED_QUANTITY: solubility at 3 h (µg/mL)
Give the value in µg/mL but do not write µg/mL after it.

Fill blank: measured solubility at 3 h of the compound CC1(C)[C@H]2C[C@H](C/C=C\CCCC(=O)O)[C@@H](NC(=O)c3csc4ccc(O)cc34)[C@@H]1C2 is ____.
5.56

----------
# PROCEDURE_TEXT: Solubility of Compound A in several test solutions
# Type: physicochemical
# STUDY_CONDITIONS: ph 6.0 test solution; pH6.0, 3 hours, final pH 6.08
# Text: Compound A was used as an insoluble active ingredient in the following references and examples.
MEASURED_QUANTITY: solubility at 3 h (µg/mL)
State the answer as a number, implicitly in µg/mL.

# lookup: solubility at 3 h of CC1(C)[C@H]2C[C@H](C/C=C\CCCC(=O)O)[C@@H](NC(=O)c3csc4ccc(O)cc34)[C@@H]1C2
15.2

----------
# PROCEDURE_TEXT: Solubility of Compound A in several test solutions
# Type: physicochemical
# STUDY_CONDITIONS: ph 6.0 test solution; pH6.0, 6 hours, final pH 6.08
MEASURED_QUANTITY: solubility at 6 h (µg/mL)
Use µg/mL as the unit, but write only the number.

Request the reported solubility at 6 h associated with CC1(C)[C@H]2C[C@H](C/C=C\CCCC(=O)O)[C@@H](NC(=O)c3csc4ccc(O)cc34)[C@@H]1C2
15.6
